Let's look at some compounds and their measured MIC Range.
# System: Enterobacter aerogenes
# EXPERIMENTAL_DETAILS: MIC against clinically isolated aerobic Gram-negative strains
# Type: cell-based
# SETTINGS: 14 strains
PARAMETER_MEASURED: MIC Range

# MOLECULE, PARAMETER_MEASURED, VALUE
data = [
    ("C[C@@H](O)[C@H]1C(=O)N2C(C(=O)O)=C(S[C@@H]3CN[C@H](C(=O)Nc4cccc(C(=O)O)c4)C3)[C@H](C)[C@H]12", "MIC Range", "0.008 to 0.5 µg/mL"),
    ("C[C@@H](O)[C@H]1C(=O)N2C(C(=O)O)=C(S[C@@H]3CN[C@H](/C=C/c4cc(C(=O)O)no4)C3)[C@H](C)[C@H]12", "MIC Range", "0.015 to 0.12 µg/mL"),
    ("C[C@@H](O)[C@H]1C(=O)N2C(C(=O)O)=C(S[C@@H]3CN[C@H](C(=O)N(C)C)C3)[C@H](C)[C@H]12", "MIC Range", "0.015 to 0.06 µg/mL"),
    ("C[C@@H](O)[C@H]1C(=O)N2C(C(=O)O)=C(SCCN=CN)C[C@H]12", "MIC Range", "0.12 to 0.5 µg/mL"),
]

----------
# EXPERIMENTAL_DETAILS: Pharmacokinetics test in rats
# Assay type: in vivo, Sprague-Dawley rats
# SETTINGS: male, Sprague-Dawley, supernatant of centrifuged blood; rat, intravenous, 20 mg/kg

# MOLECULE, clearance / mL/min/kg
rows = [
    ("C[C@@H](O)[C@H]1C(=O)N2C(C(=O)O)=C(S[C@@H]3CN[C@H](/C=C/c4cc(C(=O)O)no4)C3)[C@H](C)[C@H]12", 13.3),
]

----------
# Tested on: Proteus vulgaris
# EXPERIMENTAL_DETAILS: MIC against clinically isolated aerobic Gram-negative strains
# Assay type: cell-based
# SETTINGS: 15 strains
PARAMETER_MEASURED: MIC50

# MOLECULE, VALUE
measured = [
    ("C[C@@H](O)[C@H]1C(=O)N2C(C(=O)O)=C(S[C@@H]3CN[C@H](C(=O)Nc4cccc(C(=O)O)c4)C3)[C@H](C)[C@H]12", "0.015 µg/mL"),
    ("C[C@@H](O)[C@H]1C(=O)N2C(C(=O)O)=C(S[C@@H]3CN[C@H](/C=C/c4cc(C(=O)O)no4)C3)[C@H](C)[C@H]12", "0.06 µg/mL"),
    ("C[C@@H](O)[C@H]1C(=O)N2C(C(=O)O)=C(S[C@@H]3CN[C@H](C(=O)N(C)C)C3)[C@H](C)[C@H]12", "0.06 µg/mL"),
    ("C[C@@H](O)[C@H]1C(=O)N2C(C(=O)O)=C(SCCN=CN)C[C@H]12", "1 µg/mL"),
]

----------
# Test system: Klebsiella oxytoca
# EXPERIMENTAL_DETAILS: MIC against clinically isolated aerobic Gram-negative strains
# Type: cell-based
# SETTINGS: 15 strains

# MOLECULE, MIC Range
data = [
    ("C[C@@H](O)[C@H]1C(=O)N2C(C(=O)O)=C(S[C@@H]3CN[C@H](C(=O)Nc4cccc(C(=O)O)c4)C3)[C@H](C)[C@H]12", "0.008 to 0.25 µg/mL"),
    ("C[C@@H](O)[C@H]1C(=O)N2C(C(=O)O)=C(SCCN=CN)C[C@H]12", "0.06 to 0.5 µg/mL"),
    ("C[C@@H](O)[C@H]1C(=O)N2C(C(=O)O)=C(S[C@@H]3CN[C@H](C(=O)N(C)C)C3)[C@H](C)[C@H]12", "0.015 to 0.06 µg/mL"),
    ("C[C@@H](O)[C@H]1C(=O)N2C(C(=O)O)=C(S[C@@H]3CN[C@H](/C=C/c4cc(C(=O)O)no4)C3)[C@H](C)[C@H]12", "0.015 to 0.25 µg/mL"),
]

----------
# System: Peptostreptococcus spp.
# EXPERIMENTAL_DETAILS: MIC against clinically isolated anaerobic Gram-positive strains
# Type: cell-based
# SETTINGS: 27 strains
Let's look at some compounds and their measured MIC50.
PARAMETER_MEASURED: MIC50 (µg/mL)

# COMPOUND, VALUE
rows = [
    ("C[C@@H](O)[C@H]1C(=O)N2C(C(=O)O)=C(SCCN=CN)C[C@H]12 [IPM, Imipenem]", 0.06),
    ("C[C@@H](O)[C@H]1C(=O)N2C(C(=O)O)=C(S[C@@H]3CN[C@H](C(=O)Nc4cccc(C(=O)O)c4)C3)[C@H](C)[C@H]12 [EPM, ertapenem]", 0.12),
    ("C[C@@H](O)[C@H]1C(=O)N2C(C(=O)O)=C(S[C@@H]3CN[C@H](/C=C/c4cc(C(=O)O)no4)C3)[C@H](C)[C@H]12 [Example]", 0.12),
    ("C[C@@H](O)[C@H]1C(=O)N2C(C(=O)O)=C(S[C@@H]3CN[C@H](C(=O)N(C)C)C3)[C@H](C)[C@H]12 [MPM, meropenem]", 0.06),
]

----------
# Tested on: Bacteroides fragilis
# EXPERIMENTAL_DETAILS: MIC against clinically isolated anaerobic Gram-negative strains
# Format: cell-based
# SETTINGS: 34 strains
Let's look at some compounds and their measured MIC50.
PARAMETER_MEASURED: MIC50 (mg/L)

# MOLECULE, READING_UNIT, VALUE
rows = [
    ("C[C@@H](O)[C@H]1C(=O)N2C(C(=O)O)=C(S[C@@H]3CN[C@H](/C=C/c4cc(C(=O)O)no4)C3)[C@H](C)[C@H]12", "mg/L", 0.5),
    ("C[C@@H](O)[C@H]1C(=O)N2C(C(=O)O)=C(S[C@@H]3CN[C@H](C(=O)Nc4cccc(C(=O)O)c4)C3)[C@H](C)[C@H]12", "mg/L", 0.25),
    ("C[C@@H](O)[C@H]1C(=O)N2C(C(=O)O)=C(S[C@@H]3CN[C@H](C(=O)N(C)C)C3)[C@H](C)[C@H]12", "mg/L", 0.12),
    ("C[C@@H](O)[C@H]1C(=O)N2C(C(=O)O)=C(SCCN=CN)C[C@H]12", "mg/L", 0.25),
]

----------
# System: Citrobacter freundii
# EXPERIMENTAL_DETAILS: MIC against clinically isolated aerobic Gram-negative strains
# Format: cell-based
# SETTINGS: 14 strains
PARAMETER_MEASURED: MIC50 (mg/L)

# MOLECULE, VALUE
data = [
    ("C[C@@H](O)[C@H]1C(=O)N2C(C(=O)O)=C(S[C@@H]3CN[C@H](/C=C/c4cc(C(=O)O)no4)C3)[C@H](C)[C@H]12", 0.03),
    ("C[C@@H](O)[C@H]1C(=O)N2C(C(=O)O)=C(S[C@@H]3CN[C@H](C(=O)Nc4cccc(C(=O)O)c4)C3)[C@H](C)[C@H]12", 0.008),
    ("C[C@@H](O)[C@H]1C(=O)N2C(C(=O)O)=C(SCCN=CN)C[C@H]12", 0.12),
    ("C[C@@H](O)[C@H]1C(=O)N2C(C(=O)O)=C(S[C@@H]3CN[C@H](C(=O)N(C)C)C3)[C@H](C)[C@H]12", 0.015),
]

----------
# Test system: Bacteroides fragilis
# EXPERIMENTAL_DETAILS: MIC against clinically isolated anaerobic Gram-negative strains
# Format: cell-based
# SETTINGS: 34 strains
Let's look at some compounds and their measured MIC Range.
PARAMETER_MEASURED: MIC Range

# COMPOUND, VALUE
data = [
    ("C[C@@H](O)[C@H]1C(=O)N2C(C(=O)O)=C(S[C@@H]3CN[C@H](/C=C/c4cc(C(=O)O)no4)C3)[C@H](C)[C@H]12 [Example]", "0.25 to 4 mg/L"),
    ("C[C@@H](O)[C@H]1C(=O)N2C(C(=O)O)=C(SCCN=CN)C[C@H]12 [IPM, Imipenem]", "0.06 to 2 mg/L"),
    ("C[C@@H](O)[C@H]1C(=O)N2C(C(=O)O)=C(S[C@@H]3CN[C@H](C(=O)N(C)C)C3)[C@H](C)[C@H]12 [MPM, meropenem]", "0.12 to 4 mg/L"),
    ("C[C@@H](O)[C@H]1C(=O)N2C(C(=O)O)=C(S[C@@H]3CN[C@H](C(=O)Nc4cccc(C(=O)O)c4)C3)[C@H](C)[C@H]12 [EPM, ertapenem]", "0.12 to 4 mg/L"),
]

----------
# Test system: Staphylococcus coagulase
# EXPERIMENTAL_DETAILS: MIC against clinically isolated aerobic Gram-positive strains
# Assay type: cell-based
# SETTINGS: Staphylococcus

# MOLECULE, MEASURED_ON, READING_UNIT, MIC50
records = [
    ("C[C@@H](O)[C@H]1C(=O)N2C(C(=O)O)=C(SCCN=CN)C[C@H]12", "Staphylococcus coagulase", "µg/mL", 0.015),
    ("C[C@@H](O)[C@H]1C(=O)N2C(C(=O)O)=C(S[C@@H]3CN[C@H](C(=O)N(C)C)C3)[C@H](C)[C@H]12", "Staphylococcus coagulase", "µg/mL", 0.06),
    ("C[C@@H](O)[C@H]1C(=O)N2C(C(=O)O)=C(S[C@@H]3CN[C@H](/C=C/c4cc(C(=O)O)no4)C3)[C@H](C)[C@H]12", "Staphylococcus coagulase", "µg/mL", 0.12),
    ("C[C@@H](O)[C@H]1C(=O)N2C(C(=O)O)=C(S[C@@H]3CN[C@H](C(=O)Nc4cccc(C(=O)O)c4)C3)[C@H](C)[C@H]12", "Staphylococcus coagulase", "µg/mL", 0.25),
]
